Reference for the values: paper PMC4373826

Tested on: influenza A/PR/8/34 (H1N1)
Test: in vitro
Settings: dog, SI (selective index, CC50/EC50), Co-treatment (2 hr)
OBSERVATION TYPE: selectivity ratio

>>> observed_measurement("COc1cc(-c2oc3cc(O)cc(O)c3c(=O)c2O)ccc1O")
"> 9"

====

Assay: Cytotoxicity assay (EZ-Cytox) in MDCK cells
Type: cell-based, canine
Settings: dog; MDCK cells, 48 hr
OBSERVATION TYPE: CC50 at 48 h (µM)

>>> observed_measurement("O=C1C[C@@H](c2ccc(O)c(O)c2)Oc2cc(O)cc(O)c21")
256
>>> observed_measurement("O=c1c(O)c(-c2ccc(O)cc2)oc2cc(O)cc(O)c12")
245

====

Test system: influenza A/PR/8/34 (H1N1)
Assay: microbe, parasite or virus in culture
Settings: MDCK, Pre-treatment (1 hr)
Entries annotated with measured EC50
OBSERVATION TYPE: EC50 (µM)

>>> observed_measurement("O=c1c(O)c(-c2ccc(O)c(O)c2)oc2cc(O)cc(O)c12")
78
>>> observed_measurement("COc1cc(-c2oc3cc(O)cc(O)c3c(=O)c2O)ccc1O")
51

====

Here, each record is paired with measured selectivity ratio data.
Test system: influenza A/PR/8/34 (H1N1)
Assay: in vitro
Settings: dog, SI (selective index, CC50/EC50), Post-treatment
OBSERVATION TYPE: selectivity ratio

>>> observed_measurement("O=C1C[C@@H](c2ccc(O)c(O)c2)Oc2cc(O)cc(O)c21")
2
>>> observed_measurement("O=c1c(O)c(-c2ccc(O)cc2)oc2cc(O)cc(O)c12")
7

====

Tested on: influenza A/PR/8/34 (H1N1)
Experiment: microbe, parasite or virus in culture
Conditions: MDCK, Pre-treatment (24 hr)
pEC50: −log10 of the molar value.
Listed here: items and their measured pEC50.
OBSERVATION TYPE: pEC50

>>> observed_measurement("O=c1c(O)c(-c2ccc(O)c(O)c2)oc2cc(O)cc(O)c12")
4.01
>>> observed_measurement("COc1cc(-c2oc3cc(O)cc(O)c3c(=O)c2O)ccc1O")
4.06
